Parameter IC50: see the listing below.
System: BT-474
TEST DESCRIPTION: Antiproliferative activity against human BT474 cells after 48 hrs by Alamar blue assay
Type: functional, cell-based
CONDITION SET: BT-474, 48 h

Use these answered entries as a reference point.
MOLECULE	EXPERIMENTAL ENDPOINT	RECORDED VALUE
C=C[C@@]1(C)CC(=O)[C@]2(O)[C@@]3(C)[C@@H](OCc4cc(-c5c(OC)cc(OC)cc5OC)no4)CCC(C)(C)[C@@H]3[C@H](OC(C)=O)[C@H](O)[C@@]2(C)O1	IC50	> 100 µM
CC(=O)O[C@H]1[C@@H](O)[C@H]2C(C)(C)CC[C@H](OCc3cc(-c4ccccc4)no3)[C@]2(C)[C@@]2(O)C(=O)C[C@](C)(C3CC(c4ccccc4)=NO3)O[C@]12C (stereo not given in full)	IC50	> 100 µM
C=C[C@@]1(C)CC(=O)[C@]2(O)[C@@]3(C)[C@@H](OCc4cc(-c5ccc(OCc6ccccc6)cc5)no4)CCC(C)(C)[C@@H]3[C@H](OC(C)=O)[C@H](O)[C@@]2(C)O1	IC50	> 100 µM
C=C[C@@]1(C)CC(=O)[C@]2(O)[C@@]3(C)[C@@H](O)CCC(C)(C)[C@@H]3[C@H](O)[C@H](OC(C)=O)[C@@]2(C)O1	IC50	> 100 µM

Kindly note the recorded IC50 for COc1ccc(C2=NOC([C@@]3(C)CC(=O)[C@]4(O)[C@@]5(C)[C@@H](OCc6cc(-c7ccc(OC)cc7)no6)CCC(C)(C)[C@@H]5[C@H](O)[C@H](OC(C)=O)[C@@]4(C)O3)C2)cc1 (stereo not given in full) , which is 4.3 µM
